System: HGC27 (Human Gastric Cancer Cell)
Test: Bioactivity assay for HGC27 cell growth inhibition (CellTiter-Glo)
Assay type: cell-based
Conditions: HGC-27, HGC27 cells, 24 hours, CellTiter-Glo, highest concentration 10 μM, read-out: HGC27 CTG IC50
Method: This detection method is used to evaluate the biological activity of the compounds of the present disclosure at the cellular level. HGC27 cells (purchased from the Chinese Academy of Sciences) were harvested, resuspended in complete medium and adjusted to a cell density of 0.2×10^6 cells per ml. […] The calculated data were fitted with four parameters using GraphPad Prism software and the corresponding IC50 was calculated.
Measurement Label: IC50
The answer should read as a number with its unit following.

// query IC50 value for entry N#Cc1ccnc2c1[nH]c1cc(CNc3ncc(C(F)(F)F)c(O[C@@H]4CNC[C@@H]4O)n3)ccc12 14 nM

// query IC50 value for entry N#Cc1ccnc2c1[nH]c1cc(CNc3ncc(C(F)(F)F)c(N[C@@H]4CN(CCO)CC[C@@H]4O)n3)ccc12 9 nM

// query IC50 value for entry CC[C@@H](Nc1nc(NCc2ccc3c(c2)nn2c(CO)ccnc32)ncc1C(F)(F)F)C(N)=O 121 nM

// query IC50 value for entry N#Cc1cccc2c3ccc(CNc4ncc(C(F)(F)F)c(OC5COC5)n4)cc3nn12 80 nM

// query IC50 value for entry CO[C@@H](C)[C@@H](Nc1nc(NCc2ccc3c(c2)[nH]c2c(CO)ccnc23)ncc1C#N)C(N)=O 128 nM

// query IC50 value for entry CC[C@@H](Nc1nc(NCc2ccc3c(c2)[nH]c2c(C)ccnc23)ncc1C(F)(F)F)C(N)=O 112 nM

// query IC50 value for entry FC(F)(F)c1cnc(NCc2ccc3c(c2)oc2cccnc23)nc1OC1COC1 292 nM

// query IC50 value for entry CC[C@@H](Nc1nc(NCc2ccc3c(c2)[nH]c2c(CN)ccnc23)ncc1C(F)(F)F)C(N)=O 32 nM

// query IC50 value for entry Cc1ccnc2c1[nH]c1cc(CNc3ncc(C(F)(F)F)c(N[C@@H]4CNCC[C@@H]4O)n3)ccc12 8 nM

// query IC50 value for entry C[C@@H](O)[C@@H](C)Nc1nc(NCc2ccc3c(c2)[nH]c2c(C#N)ccnc23)ncc1C(F)(F)F 7 nM

// query IC50 value for entry OCc1ccnc2c3ccc(CNc4ncc(C(F)(F)F)c(OC5COC5)n4)cc3nn12 54 nM

// query IC50 value for entry NCc1ccnc2c1[nH]c1cc(CNc3ncc(C(F)(F)F)c(OC4COC4)n3)ccc12 62 nM

// query IC50 value for entry N#Cc1ccnc2c1[nH]c1cc(CNc3ncc(C(F)(F)F)c(N[C@@H]4CN(C(=O)CN)CC[C@@H]4O)n3)ccc12 12 nM

// query IC50 value for entry CN1CC[C@H](O)[C@H](Nc2nc(NCc3ccc4c(c3)[nH]c3c(C#N)ccnc34)ncc2C(F)(F)F)C1 2 nM

// query IC50 value for entry CC[C@@H](Nc1nc(NCc2ccc3c(c2)nn2c(CN)ccnc32)ncc1C(F)(F)F)C(N)=O 70 nM
